Provide the reported 10 µM (% DMSO) of each item.
System: expanded OPCs
experimentalDetails: cells
assayConditions: alamarBlue viability of expanded OPCs, compound at 10 µM, relative to DMSO control
Give bare numbers, in % DMSO.

* CCN(CC)CCOc1ccc(C(=C(Cl)c2ccccc2)c2ccccc2)cc1 | 8.1

For every item below, please supply its 10 µM (% DMSO).
1. C#C[C@]1(O)CC[C@H]2[C@@H]3CCC4=Cc5oncc5C[C@]4(C)[C@H]3CC[C@@]21C
2. CCC(C)(C)C(=O)O[C@H]1C[C@@H](C)C=C2C=C[C@H](C)[C@H](CC[C@@H]3C[C@@H](O)CC(=O)O3)[C@H]21
3. CC(C[N+](C)(C)C)OC(N)=O (stereo not drawn)
4. CC(=O)[C@@]1(O)CC[C@H]2[C@@H]3C[C@H](C)C4=CC(=O)C=C[C@]4(C)[C@@]3(F)[C@@H](O)C[C@@]21C
5. C[C@]12C=CC(=O)C=C1CC[C@@H]1[C@@H]2C(=O)C[C@@]2(C)[C@H]1CC[C@]2(O)C(=O)CO
6. NC(=O)c1ncn([C@@H]2O[C@H](CO)[C@@H](O)[C@H]2O)n1
7. COc1cc(C)c(/C=C/C(C)=C/C=C/C(C)=C/C(=O)O)c(C)c1C
8. COc1cc([C@@H]2c3cc4c(cc3[C@H](O)[C@H]3COC(=O)[C@H]23)OCO4)cc(OC)c1OC

RESULT:
1. 47.1
2. 25.7
3. 88.2
4. 86.2
5. 86.2
6. 76.9
7. 148.0
8. 9.1

For every item below, please supply its 10 µM (% DMSO).
1. O=C1NC(=O)C(c2ccccc2)(c2ccccc2)N1
2. CCOC(=O)[C@H](CCc1ccccc1)N[C@@H](C)C(=O)N1CCC[C@H]1C(=O)O
3. Cc1cccc(C)c1OCC(C)N (stereo not drawn)
4. COc1ccccc1OCC(O)COC(N)=O (stereo not drawn)
5. CCN(CC)CCOC(=O)C1(C2CCCCC2)CCCCC1
6. COc1ccc(Cl)cc1C(=O)NCCc1ccc(S(=O)(=O)NC(=O)NC2CCCCC2)cc1 [Glyburide]

RESULT:
1: 83.9; 2: 87.6; 3: 72.1; 4: 88.1; 5: 52.8; 6: 85.2

For every item below, please supply its 10 µM (% DMSO).
1. CO/N=C(\C(=O)N[C@@H]1C(=O)N2C(C(=O)O)=C(COC(N)=O)CS[C@H]12)c1ccco1
2. COc1cc2nc(N3CCN(C(=O)C4COc5ccccc5O4)CC3)nc(N)c2cc1OC (stereo not drawn)
3. C[C@@](Cc1ccc(O)c(O)c1)(NN)C(=O)O
4. CCOC(=O)c1cncn1[C@H](C)c1ccccc1 [Etomidate]
5. CS(=O)(=O)OCCCCOS(C)(=O)=O
6. O=C1CC[C@@]2(O)[C@H]3Cc4ccc(O)c5c4[C@@]2(CCN3CC2CC2)[C@H]1O5 [Naltrexone]
7. CNC(=C[N+](=O)[O-])NCCSCc1ccc(CN(C)C)o1
8. O.O.O=C1N=C([O-])CN1/N=C/c1ccc(-c2ccc([N+](=O)[O-])cc2)o1.[Na+] [Dantrolene sodium salt dihydrate]

RESULT:
91.5
18.9
82.3
88.3
79.1
97.3
106.7
91.7

For every item below, please supply its 10 µM (% DMSO).
1. O=C(O)c1cc(=O)c2c(OCC(O)COc3cccc4oc(C(=O)O)cc(=O)c34)cccc2o1 [Cromolyn Sodium]
2. CC(C)(C)NCC(O)COc1cccc2c1CC(O)C(O)C2 (stereo not drawn)
3. CC(COc1ccccc1)N(CCCl)Cc1ccccc1 (stereo not drawn)
4. NC(=O)N1c2ccccc2C=Cc2ccccc21 [Carbamazepine]
5. CN[C@H]1CC[C@@H](c2ccc(Cl)c(Cl)c2)c2ccccc21
6. CCn1cc(C(=O)O)c(=O)c2cc(F)c(N3CCNCC3)cc21
7. CC1COc2c(N3CCN(C)CC3)c(F)cc3c(=O)c(C(=O)O)cn1c23 (stereo not drawn)

RESULT:
85.3
94.0
142.4
103.7
7.7
99.0
89.4

For every item below, please supply its 10 µM (% DMSO).
1. C#CCN(C)[C@H](C)Cc1ccccc1
2. CCCNCC(O)COc1ccccc1C(=O)CCc1ccccc1 (stereo not drawn)

RESULT:
1. 94.0
2. 29.5

For every item below, please supply its 10 µM (% DMSO).
1. Sc1ncnc2nc[nH]c12
2. CCCSc1ccc2nc(NC(=O)OC)[nH]c2c1
3. CC(=O)Nc1nnc(S(N)(=O)=O)s1 [Acetazolamide]
4. CCCNC(=O)NS(=O)(=O)c1ccc(Cl)cc1 [Chlorpropamide]

RESULT:
95.9
58.6
87.5
208.8
